test: Dolutegravir solubility in the presence of monovalent and divalent ions; assay type: physicochemical; details: aqueous buffer, thermodynamic from solid; water containing potassium ion 500 ppm; 20 mg in 12 ml
Endpoint name: solubility (µg/mL)
The figure you give is taken to be in µg/mL; do not add the unit.

**Query** Requested read-out: solubility. Entry: C[C@@H]1CCO[C@H]2Cn3cc(C(=O)NCc4ccc(F)cc4F)c(=O)c(O)c3C(=O)N12 [Dolutegravir]
**Result** 780

* * *

test: Dolutegravir solubility in the presence of monovalent and divalent ions; format: physicochemical; conditions: aqueous buffer, thermodynamic from solid; water containing calcium ion 500 ppm; 20 mg in 12 ml
Endpoint name: solubility (µg/mL)
The figure you give is taken to be in µg/mL; do not add the unit.

**Query** Requested read-out: solubility. Entry: `C[C@@H]1CCO[C@H]2Cn3cc(C(=O)NCc4ccc(F)cc4F)c(=O)c(O)c3C(=O)N12`
**Result** 30
